Provenance of the data: ChEMBL document CHEMBL5260838

# Tested on: mouse breast cancer resistant protein (Bcrp)
# Assay Explanation: Efflux ratio of apparent permeability across basolateral to apical side over apical to basolateral side MDCK-II cells expressing mouse breast cancer resistant protein
# Format: ADME, cell-based, Canis lupus familiaris
# Condition Info: dog
Observed Property: efflux ratio

>  <Molecular String>
CC1(COc2cc(F)c(C(=O)NS(=O)(=O)C3CC3)cc2C2CC2)CCC2(CC1)CC2

>  <Assay System>
mouse breast cancer resistant protein (Bcrp)

>  <Obs Value>
2.1

$$$$

----------
# Assay Explanation: Volume of distribution at steady state in FVB mouse at 1 mg/kg, iv
# Type: ADME, organism-based
# Condition Info: in vivo, iv, 1 mg/kg

>  <Molecular String>
CC1(COc2cc(F)c(C(=O)NS(=O)(=O)C3CC3)cc2C2CC2)CCC2(CC1)CC2

>  <Vdss / L/kg>
0.41

$$$$

----------
# Assay System: Sodium channel protein type 9 subunit alpha (Homo sapiens, UniProt Q15858)
# Sequence (Q15858 whole entry): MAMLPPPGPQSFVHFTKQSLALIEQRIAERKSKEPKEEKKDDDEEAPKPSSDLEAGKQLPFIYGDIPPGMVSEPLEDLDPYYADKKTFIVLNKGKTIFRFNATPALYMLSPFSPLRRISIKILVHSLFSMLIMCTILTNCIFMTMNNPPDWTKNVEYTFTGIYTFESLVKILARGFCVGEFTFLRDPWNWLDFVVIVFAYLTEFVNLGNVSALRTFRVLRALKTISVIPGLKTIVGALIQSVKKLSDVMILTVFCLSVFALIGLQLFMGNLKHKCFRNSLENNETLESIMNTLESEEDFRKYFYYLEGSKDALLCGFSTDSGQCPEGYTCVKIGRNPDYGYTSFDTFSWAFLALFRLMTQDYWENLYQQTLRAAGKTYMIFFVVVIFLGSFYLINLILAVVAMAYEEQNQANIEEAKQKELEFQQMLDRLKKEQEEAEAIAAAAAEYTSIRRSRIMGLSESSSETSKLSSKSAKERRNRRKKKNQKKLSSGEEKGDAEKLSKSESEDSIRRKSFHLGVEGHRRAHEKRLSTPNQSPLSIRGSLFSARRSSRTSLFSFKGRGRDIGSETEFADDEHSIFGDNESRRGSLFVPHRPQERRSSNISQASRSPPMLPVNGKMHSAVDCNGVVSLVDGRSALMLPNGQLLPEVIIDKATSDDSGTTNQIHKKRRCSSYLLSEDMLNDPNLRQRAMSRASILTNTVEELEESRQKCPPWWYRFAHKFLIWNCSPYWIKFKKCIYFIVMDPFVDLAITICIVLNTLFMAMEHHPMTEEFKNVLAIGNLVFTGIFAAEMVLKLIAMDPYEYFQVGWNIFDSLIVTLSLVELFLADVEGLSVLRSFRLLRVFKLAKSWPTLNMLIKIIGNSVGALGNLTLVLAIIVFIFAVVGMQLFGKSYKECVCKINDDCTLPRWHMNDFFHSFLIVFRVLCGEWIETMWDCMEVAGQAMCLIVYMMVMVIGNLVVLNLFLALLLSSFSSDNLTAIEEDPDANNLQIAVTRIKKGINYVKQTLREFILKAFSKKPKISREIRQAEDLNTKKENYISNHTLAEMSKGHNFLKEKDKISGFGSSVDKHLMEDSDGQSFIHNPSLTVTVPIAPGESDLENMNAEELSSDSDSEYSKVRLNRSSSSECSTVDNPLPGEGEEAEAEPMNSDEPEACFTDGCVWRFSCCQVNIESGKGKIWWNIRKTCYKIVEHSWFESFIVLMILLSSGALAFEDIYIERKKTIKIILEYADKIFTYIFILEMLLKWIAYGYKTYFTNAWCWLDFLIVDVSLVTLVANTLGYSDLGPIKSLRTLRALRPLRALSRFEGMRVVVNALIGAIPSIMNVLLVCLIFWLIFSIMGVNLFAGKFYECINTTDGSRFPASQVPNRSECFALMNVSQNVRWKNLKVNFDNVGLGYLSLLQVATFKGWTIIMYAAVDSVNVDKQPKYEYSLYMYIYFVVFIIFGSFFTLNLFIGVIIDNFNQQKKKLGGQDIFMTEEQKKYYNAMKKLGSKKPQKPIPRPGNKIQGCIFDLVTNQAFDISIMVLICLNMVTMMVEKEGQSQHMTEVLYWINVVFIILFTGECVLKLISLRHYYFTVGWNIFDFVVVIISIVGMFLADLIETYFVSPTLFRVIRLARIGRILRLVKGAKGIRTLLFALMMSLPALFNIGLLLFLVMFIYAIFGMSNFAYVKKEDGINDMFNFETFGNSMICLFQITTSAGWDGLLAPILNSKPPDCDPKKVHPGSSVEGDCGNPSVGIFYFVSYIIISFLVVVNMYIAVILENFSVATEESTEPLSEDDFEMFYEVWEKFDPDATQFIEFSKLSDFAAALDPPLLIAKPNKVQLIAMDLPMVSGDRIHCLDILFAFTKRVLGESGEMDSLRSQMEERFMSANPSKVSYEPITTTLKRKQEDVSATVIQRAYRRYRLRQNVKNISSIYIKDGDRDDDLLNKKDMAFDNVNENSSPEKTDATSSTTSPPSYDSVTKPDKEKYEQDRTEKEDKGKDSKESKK
# Assay Explanation: Inhibition of human Nav1.7 alpha subunit expressed in HEK293 cells co-expressing beta1 subunit at -60 mV holding potential by whole-cell patch voltage clamp electrophysiology recording
# Type: cell-based
pIC50: −log10 of the molar value.
Each entry below lists one item and its recorded pIC50 value.
Observed Property: pIC50

>  <Compound>
CS(=O)(=O)NC(=O)c1cc(Cl)c(OCC23CC4(F)CC(F)(CC(F)(C4)C2)C3)cc1F

>  <Observed Property>
pIC50

>  <Obs Value>
6.12

$$$$
>  <Compound>
CS(=O)(=O)NC(=O)c1cc(F)c(OCC23CC4CC(CC(C4)C2)C3)cc1F

>  <Observed Property>
pIC50

>  <Obs Value>
7.39

$$$$
>  <Compound>
CC1(COc2cc(F)c(C(=O)NS(=O)(=O)C3CC3)cc2C2CC2)CCC(C(F)(F)F)CC1 (centres undefined)

>  <Observed Property>
pIC50

>  <Obs Value>
8.22

$$$$
>  <Compound>
CC(C)c1cc(C(=O)NS(C)(=O)=O)c(F)cc1OCC12CC3CC(CC(C3)C1)C2

>  <Observed Property>
pIC50

>  <Obs Value>
8.00

$$$$
>  <Compound>
CC1(COc2cc(F)c(C(=O)NS(=O)(=O)C3CC3)cc2C2CC2)CCC2(CC1)CC2

>  <Observed Property>
pIC50

>  <Obs Value>
9.22

$$$$
>  <Compound>
Cc1cc(C(=O)NS(C)(=O)=O)c(F)cc1OCC12CC3CC(CC(C3)C1)C2

>  <Observed Property>
pIC50

>  <Obs Value>
8.22

$$$$
>  <Compound>
CCc1cc(C(=O)NS(C)(=O)=O)c(F)cc1OCC12CC3CC(CC(C3)C1)C2

>  <Observed Property>
pIC50

>  <Obs Value>
8.22

$$$$
>  <Compound>
CS(=O)(=O)NC(=O)c1cc(C2CC2)c(OCC23CC4CC(C2)C(F)(F)C(C4)C3)cc1F

>  <Observed Property>
pIC50

>  <Obs Value>
8.51

$$$$
>  <Compound>
CS(=O)(=O)NC(=O)c1cc(Cl)c(OCC23CC4CC(CC(O)(C4)C2)C3)cc1F

>  <Observed Property>
pIC50

>  <Obs Value>
5.66

$$$$

----------
# Assay Explanation: Half-life in FVB mouse at 1 mg/kg, iv
# Type: ADME, organism-based
# Condition Info: FVB, in vivo

>  <Molecular String>
CC1(COc2cc(F)c(C(=O)NS(=O)(=O)C3CC3)cc2C2CC2)CCC(F)(F)CC1

>  <half-life>
2.1 h

$$$$

----------
The compounds listed here are annotated with their IC50.
# Assay System: Sodium channel protein type 9 subunit alpha (Rattus norvegicus, UniProt O08562)
# Assay Explanation: Inhibition of rat Nav1.7 at -60 mV holding potential by PatchXpress automated voltage clamp electrophysiology technique

>  <Molecular String>
CC1(COc2cc(F)c(C(=O)NS(=O)(=O)C3CC3)cc2C2CC2)CCC2(CC1)CC2

>  <Assay System>
Sodium channel protein type 9 subunit alpha (Rattus norvegicus, UniProt O08562)

>  <IC50, nM>
3.7

$$$$
>  <Molecular String>
CC1(COc2cc(F)c(C(=O)NS(=O)(=O)C3CC3)cc2C2CC2)CCC(F)(F)CC1

>  <Assay System>
Sodium channel protein type 9 subunit alpha (Rattus norvegicus, UniProt O08562)

>  <IC50, nM>
9

$$$$

----------
Property: half-life; scope: individual molecules
# Assay Explanation: Half-life in Sprague-Dawley rat at 1 mg/kg, iv
# Format: ADME, organism-based
# Condition Info: in vivo

>  <Molecular String>
CC1(COc2cc(F)c(C(=O)NS(=O)(=O)C3CC3)cc2C2CC2)CCC2(CC1)CC2

>  <Unit>
min

>  <half-life>
486

$$$$
>  <Molecular String>
CC1(COc2cc(F)c(C(=O)NS(=O)(=O)C3CC3)cc2C2CC2)CCC(F)(F)CC1

>  <Unit>
min

>  <half-life>
540

$$$$

----------
# Assay Explanation: Drug concentration in plasma of orally dosed formalin-induced FVB mouse model of pain measured after 3 hrs by UPLC-ESI […] analysis
# Type: ADME, organism-based
# Condition Info: route po
Observed Property: concentration at 3 h

>  <Molecular String>
CC1(COc2cc(F)c(C(=O)NS(=O)(=O)C3CC3)cc2C2CC2)CCC2(CC1)CC2

>  <Obs Value>
50 µM

$$$$

----------
Reported IC50 values follow for various compounds
# Assay System: Sodium channel protein type 9 subunit alpha (Homo sapiens)
# Assay Explanation: Inhibition of human Nav1.7 alpha subunit expressed in HEK293 cells co-expressing beta1 subunit at -60 mV holding potential by whole-cell patch voltage clamp electrophysiology recording
# Format: cell-based

>  <Molecular String>
CS(=O)(=O)NC(=O)c1cc(Cl)c(OCCC2CC2)cc1F

>  <IC50, nM>
440

$$$$
>  <Molecular String>
CS(=O)(=O)NC(=O)c1cc(Cl)c(OCC2CCCC2)cc1F

>  <IC50, nM>
68

$$$$
>  <Molecular String>
CS(=O)(=O)NC(=O)c1cc(Cl)c(OCC23CC4CC(CC(C4)C2)C3)cc1Cl

>  <IC50, nM>
570

$$$$
>  <Molecular String>
CS(=O)(=O)NC(=O)c1cc(Cl)c(OC2CCCCC2)cc1F

>  <IC50, nM>
260

$$$$
>  <Molecular String>
CS(=O)(=O)NC(=O)c1cc(Cl)c(OCCC2CCCCC2)cc1F

>  <IC50, nM>
17

$$$$
>  <Molecular String>
CCC1(COc2cc(F)c(C(=O)NS(=O)(=O)C3CC3)cc2C2CC2)CCC(F)(F)CC1

>  <IC50, nM>
5

$$$$

----------
# Assay System: Cytochrome P450 2C9 (Homo sapiens, UniProt P11712)
# Sequence (P11712 whole entry): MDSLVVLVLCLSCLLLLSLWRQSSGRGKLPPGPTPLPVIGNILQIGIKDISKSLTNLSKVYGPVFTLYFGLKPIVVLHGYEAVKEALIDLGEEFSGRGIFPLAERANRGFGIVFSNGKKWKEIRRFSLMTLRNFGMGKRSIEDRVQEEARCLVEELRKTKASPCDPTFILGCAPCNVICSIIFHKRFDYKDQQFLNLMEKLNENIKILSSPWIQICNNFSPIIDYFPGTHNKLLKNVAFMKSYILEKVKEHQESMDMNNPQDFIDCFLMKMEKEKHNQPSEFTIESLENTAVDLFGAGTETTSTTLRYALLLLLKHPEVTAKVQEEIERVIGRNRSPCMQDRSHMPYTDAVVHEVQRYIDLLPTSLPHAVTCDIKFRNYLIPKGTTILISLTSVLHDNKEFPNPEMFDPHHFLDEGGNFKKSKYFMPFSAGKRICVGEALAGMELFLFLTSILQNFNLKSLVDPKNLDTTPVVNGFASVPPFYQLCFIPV
pIC50: −log10 of the molar value.
Observed Property: pIC50

>  <Molecular String>
CC1(COc2cc(F)c(C(=O)NS(=O)(=O)C3CC3)cc2C2CC2)CCC2(CC1)CC2

>  <Obs Value>
5.21

$$$$

----------
# Assay System: Sodium channel protein type 10 subunit alpha (Mus musculus)
# Sequence (Q6QIY3 whole entry): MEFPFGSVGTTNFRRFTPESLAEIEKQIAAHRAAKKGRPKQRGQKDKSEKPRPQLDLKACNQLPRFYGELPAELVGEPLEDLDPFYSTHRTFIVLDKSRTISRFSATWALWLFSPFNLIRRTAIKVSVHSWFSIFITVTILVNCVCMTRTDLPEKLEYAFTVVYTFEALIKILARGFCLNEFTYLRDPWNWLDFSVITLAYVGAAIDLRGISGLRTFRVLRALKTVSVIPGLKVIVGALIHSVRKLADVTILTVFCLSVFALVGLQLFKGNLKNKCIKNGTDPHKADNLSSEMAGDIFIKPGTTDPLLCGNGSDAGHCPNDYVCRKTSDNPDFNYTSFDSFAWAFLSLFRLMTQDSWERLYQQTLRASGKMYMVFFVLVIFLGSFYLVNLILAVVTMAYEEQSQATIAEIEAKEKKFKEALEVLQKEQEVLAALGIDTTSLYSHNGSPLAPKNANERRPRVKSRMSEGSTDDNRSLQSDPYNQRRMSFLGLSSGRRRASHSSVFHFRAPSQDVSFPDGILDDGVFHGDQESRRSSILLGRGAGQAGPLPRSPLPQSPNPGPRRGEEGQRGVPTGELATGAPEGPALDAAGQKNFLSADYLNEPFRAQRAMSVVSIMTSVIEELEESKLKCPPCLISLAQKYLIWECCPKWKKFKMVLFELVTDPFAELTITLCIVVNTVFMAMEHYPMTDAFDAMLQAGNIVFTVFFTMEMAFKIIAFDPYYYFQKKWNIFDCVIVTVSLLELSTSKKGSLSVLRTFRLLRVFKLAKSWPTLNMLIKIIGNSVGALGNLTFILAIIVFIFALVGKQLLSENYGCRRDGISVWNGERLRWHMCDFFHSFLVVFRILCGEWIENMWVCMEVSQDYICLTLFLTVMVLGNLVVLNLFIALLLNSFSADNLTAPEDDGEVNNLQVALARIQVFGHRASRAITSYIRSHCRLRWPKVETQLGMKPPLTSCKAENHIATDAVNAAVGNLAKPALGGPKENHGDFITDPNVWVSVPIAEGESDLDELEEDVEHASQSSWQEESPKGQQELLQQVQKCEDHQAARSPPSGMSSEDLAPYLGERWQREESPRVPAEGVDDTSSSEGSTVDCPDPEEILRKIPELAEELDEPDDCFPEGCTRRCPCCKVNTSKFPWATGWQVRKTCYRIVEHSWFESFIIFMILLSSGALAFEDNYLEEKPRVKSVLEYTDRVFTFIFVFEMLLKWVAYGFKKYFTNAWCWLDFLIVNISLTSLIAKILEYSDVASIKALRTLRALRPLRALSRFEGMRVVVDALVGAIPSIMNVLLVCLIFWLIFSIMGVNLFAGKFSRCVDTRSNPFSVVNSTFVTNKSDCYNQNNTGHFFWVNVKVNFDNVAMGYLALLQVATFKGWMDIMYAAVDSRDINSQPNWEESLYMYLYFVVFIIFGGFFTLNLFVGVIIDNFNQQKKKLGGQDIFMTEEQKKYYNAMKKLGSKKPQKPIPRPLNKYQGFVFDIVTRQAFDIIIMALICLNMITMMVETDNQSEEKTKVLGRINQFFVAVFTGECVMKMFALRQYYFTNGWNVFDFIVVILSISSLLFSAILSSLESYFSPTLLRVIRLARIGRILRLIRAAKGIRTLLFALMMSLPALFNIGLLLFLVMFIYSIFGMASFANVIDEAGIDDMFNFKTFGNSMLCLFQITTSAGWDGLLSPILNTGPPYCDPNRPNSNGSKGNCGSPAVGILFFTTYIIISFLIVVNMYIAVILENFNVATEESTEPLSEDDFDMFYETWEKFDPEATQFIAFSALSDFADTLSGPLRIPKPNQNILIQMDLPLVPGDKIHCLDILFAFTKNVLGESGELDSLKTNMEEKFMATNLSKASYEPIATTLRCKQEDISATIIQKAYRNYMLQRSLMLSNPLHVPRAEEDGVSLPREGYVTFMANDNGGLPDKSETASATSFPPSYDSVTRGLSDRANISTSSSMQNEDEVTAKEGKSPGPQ
# Assay Explanation: Inhibition of TTX-resistant Nav1.8 in mouse dorsal root ganglion neuron by voltage clamp recording

>  <Molecular String>
CC1(COc2cc(F)c(C(=O)NS(=O)(=O)C3CC3)cc2C2CC2)CCC2(CC1)CC2

>  <IC50>
> 10 µM

$$$$

----------
# Assay Explanation: Drug concentration in brain of FVB mouse model of aconitine-induced pain expressing human Nav1.7 I848T mutant at 10 mg/kg, po administered 120 mins prior to aconitine administered and measured after 70 mins by UPLC-ESI MS/MS analysis
# Format: ADME, organism-based
# Condition Info: time 190 min, read-out: Ct

>  <Molecular String>
CC1(COc2cc(F)c(C(=O)NS(=O)(=O)C3CC3)cc2C2CC2)CCC2(CC1)CC2

>  <concentration at 3.167 h>
6.2 µM

$$$$

----------
# Assay System: Cytochrome P450 2D6 (Homo sapiens, UniProt P10635)
# Sequence (P10635 whole entry): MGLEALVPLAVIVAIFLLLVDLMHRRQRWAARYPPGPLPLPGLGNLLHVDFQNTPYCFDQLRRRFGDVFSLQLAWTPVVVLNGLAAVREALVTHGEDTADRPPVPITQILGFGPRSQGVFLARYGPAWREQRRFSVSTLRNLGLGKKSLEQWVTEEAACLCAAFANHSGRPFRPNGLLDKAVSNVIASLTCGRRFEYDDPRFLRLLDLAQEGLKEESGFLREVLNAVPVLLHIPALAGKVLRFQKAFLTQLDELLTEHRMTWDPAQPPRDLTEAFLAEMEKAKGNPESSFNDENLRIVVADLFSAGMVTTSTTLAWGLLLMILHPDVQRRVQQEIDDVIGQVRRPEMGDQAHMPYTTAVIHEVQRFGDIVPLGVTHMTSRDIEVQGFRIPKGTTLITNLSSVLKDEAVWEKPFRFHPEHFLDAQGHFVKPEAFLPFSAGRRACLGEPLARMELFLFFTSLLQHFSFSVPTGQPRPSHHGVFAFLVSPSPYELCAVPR

>  <Molecular String>
CC1(COc2cc(F)c(C(=O)NS(=O)(=O)C3CC3)cc2C2CC2)CCC2(CC1)CC2

>  <Assay System>
Cytochrome P450 2D6 (Homo sapiens, UniProt P10635)

>  <IC50>
> 10 µM

$$$$

----------
Catalogue of Papp A→B readings, one per entry.
# System: mouse breast cancer resistant protein (Bcrp)
# Assay Explanation: Apparent permeability from apical to basolateral side in MDCK-II cells expressing mouse breast cancer resistant protein
# Type: ADME, cell-based, Canis lupus familiaris
# Condition Info: dog

>  <Molecular String>
CC1(COc2cc(F)c(C(=O)NS(=O)(=O)C3CC3)cc2C2CC2)CCC2(CC1)CC2

>  <Assay System>
mouse breast cancer resistant protein (Bcrp)

>  <Papp A→B (×10⁻⁶ cm/s)>
5.1

$$$$
>  <Molecular String>
CC1(COc2cc(F)c(C(=O)NS(=O)(=O)C3CC3)cc2C2CC2)CCC(F)(F)CC1

>  <Assay System>
mouse breast cancer resistant protein (Bcrp)

>  <Papp A→B (×10⁻⁶ cm/s)>
0.4

$$$$
